# system.tested: T1, Purβ FL (wild-type NHis-Purβ) (Mus musculus, UniProt O35295 1-324)
# T1 sequence: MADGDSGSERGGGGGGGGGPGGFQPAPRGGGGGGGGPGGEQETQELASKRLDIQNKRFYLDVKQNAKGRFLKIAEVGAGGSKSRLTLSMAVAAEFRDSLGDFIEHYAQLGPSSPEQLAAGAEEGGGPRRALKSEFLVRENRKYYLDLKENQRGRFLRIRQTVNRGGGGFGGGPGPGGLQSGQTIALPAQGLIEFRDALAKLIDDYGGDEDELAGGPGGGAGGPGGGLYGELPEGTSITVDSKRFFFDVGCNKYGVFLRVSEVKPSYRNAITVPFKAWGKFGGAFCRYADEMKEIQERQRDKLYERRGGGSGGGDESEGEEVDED
# protocol.notes: ELISA
test.readout: pKd
Answer as the number alone; pKd is minus log10 of concentration in mol/L.

Ask | Name the reported pKd value associated with the binder GGGAGCAGAACAGAGGAATGCAGTGGAAGAGA (ssDNA) [PE32-bF]
Reply | 9.77
